All values here come from ChEMBL document CHEMBL1153911.

Organism: Homo sapiens
Assay: Selectivity ratio of Ki for delta opioid receptor to Ki for mu opioid receptor
For each of the compounds below, state its Ratio Ki.
Respond using a number only.

Quick check: Ratio Ki of `O=C(O[C@@]12CCC(=O)[C@@H]3Oc4c(O)ccc5c4[C@@]31CCN(CC1CC1)[C@@H]2C5)c1ccncc1` ?
73

What value of measured Ratio Ki is listed for `O=C(O[C@@]12CCC(=O)[C@@H]3Oc4c(O)ccc5c4[C@@]31CCN(CC1CC1)[C@@H]2C5)c1ccc2ccccc2n1` ?
16

====

I'd be grateful if you could share measured Ratio Ki for these entries.
Organism: Homo sapiens
Experiment: Selectivity ratio of Ki for kappa opioid receptor to Ki for mu opioid receptor
Answer with a bare number; do not write a unit.

Requested field: Ratio Ki. Item: `O=C(O[C@@]12CCC(=O)[C@@H]3Oc4c(O)ccc5c4[C@@]31CCN(CC1CC1)[C@@H]2C5)c1cccnc1`
30

Return reported Ratio Ki; argument: C[C@@H](O)[C@H](NC(=O)[C@H](NC(=O)[C@@H](NC(=O)[C@H](CCCNC(=N)N)NC(=O)C(Cc1c[nH]c2ccccc12)NC(=O)[C@@H](Cc1ccc(O)cc1)NC(=O)[C@H](CS)NC(=O)[C@H](N)Cc1ccccc1)[C@@H](C)O)C(C)(C)S)C(=O)O (stereo in doubt)
501

I'd like to know its Ratio Ki. The molecule in question is `O=C(O[C@@]12CCC(=O)[C@@H]3Oc4c(O)ccc5c4[C@@]31CCN(CC1CC1)[C@@H]2C5)c1ccccc1`
5

What does the record list as Ratio Ki for `O=C(O[C@@]12CCC(=O)[C@@H]3Oc4c(O)ccc5c4[C@@]31CCN(CC1CC1)[C@@H]2C5)c1ccccn1` ?
182

Reported Ratio Ki for `O=C(O[C@@]12CCC(=O)[C@@H]3Oc4c(O)ccc5c4[C@@]31CCN(CC1CC1)[C@@H]2C5)c1ccc2ccccc2n1` : what is it?
47

Using the record for `O=C(O[C@@]12CCC(=O)[C@@H]3Oc4c(O)ccc5c4[C@@]31CCN(CC1CC1)[C@@H]2C5)c1cnc2ccccc2c1` , report its Ratio Ki.
55

Param item = `COc1cccc2c1[C@]13CCN(CC4CC4)[C@H](C2)[C@]1(OC)CCC(=O)C3` ; retrieve measured Ratio Ki.
45

Name the recorded Ratio Ki for `O=C(O[C@@]12CCC(=O)[C@@H]3Oc4c(O)ccc5c4[C@@]31CCN(CC1CC1)[C@@H]2C5)c1ccncc1` .
9

====

Target: Mu-type opioid receptor (Homo sapiens, UniProt P35372)
Sequence (P35372 whole entry): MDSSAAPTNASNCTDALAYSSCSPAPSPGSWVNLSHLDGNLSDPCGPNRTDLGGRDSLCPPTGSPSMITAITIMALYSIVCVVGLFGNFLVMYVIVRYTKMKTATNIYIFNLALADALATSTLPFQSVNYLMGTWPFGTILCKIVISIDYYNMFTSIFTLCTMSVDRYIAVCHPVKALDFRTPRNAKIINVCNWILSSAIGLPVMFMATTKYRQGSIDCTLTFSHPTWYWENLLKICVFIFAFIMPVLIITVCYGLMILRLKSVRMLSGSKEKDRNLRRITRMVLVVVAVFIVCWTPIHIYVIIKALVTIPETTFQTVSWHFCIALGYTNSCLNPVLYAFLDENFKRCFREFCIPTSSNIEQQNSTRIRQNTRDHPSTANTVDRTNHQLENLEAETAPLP
Assay: Displacement of [3H]DAMGO from mu opioid receptor expressed in CHO cells
Format: cell-based
property_label: Ki (nM)
Give just the number in nM; leave the unit off.

Param readout = Ki; param system = Mu-type opioid receptor (Homo sapiens, UniProt P35372); param query = `COC(=O)/C=C/C(=O)N[C@@H]1CC[C@@]2(O)[C@H]3Cc4ccc(O)c5c4[C@@]2(CCN3CC2CC2)[C@H]1O5` ; response: value
0.41
